I'd appreciate it if you could supply minimal effective concentration values for the items below.
system: ypt1^ts cells; assay: Rescue of growth of ypt1^ts mutant yeast (OD600); type: cell-based; details: Saccharomyces cerevisiae, read-out: Ypt1-ts MRC (Minimum Rescue Concentration), ypt1^ts cells, 35° C. and 37° C., OD600; multiple results separated by a comma

Example entries and their recorded answers appear below.
                                   molecule  recorded_measurement
0  Nc1ncnc2c1c(-c1ccc(Cl)cc1)nn2C1CCCC1 [compound 34]           10 to 50 µM
1  CCn1nc(-c2ccc(Cl)cc2)c2c(NC(C)=O)ncnc21 [compound 53]               > 50 µM
2  CC(C)(C)n1nc(C(=O)c2ccccc2)c2c(N)ncnc21 [compound 83]               > 50 µM

List reported minimal effective concentration for each of these molecules:
1. CC(C)(C)n1nc(-c2ccc(Cl)cc2)c2c(N)ncnc21 [compound 25]
2. Nc1ncnc2c1c(Cc1cccc3ccccc13)nn2C1CCC1 [compound 74]
3. Cc1ccc(-c2nn(C(C)(C)C)c3ncc(C(=O)O)c(N)c23)cc1 [compound 45]
4. CC(C)(C)n1nc(Cc2ccc(Cl)c(Cl)c2)c2c(N)ncnc21 [compound 21]
5. Nc1ncnc2[nH]nc(Cc3cccc4ccccc34)c12 [compound 70]
6. CC(C)(C)n1nc(Cc2cccc3ccccc23)c2c(N)ncnc21 [compound 5]

1. < 10 µM
2. < 10 µM
3. > 50 µM
4. > 50 µM
5. > 50 µM
6. < 10 µM

List reported minimal effective concentration for each of these molecules:
1. CC(=O)Nc1ncnc2c1c(-c1ccc(Cl)cc1)nn2C(C)(C)C [Compound No. 2]
2. CC(C)(C)n1nc(CCc2ccccc2)c2c(N)ncnc21 [compound 48]
3. Cc1ccc(-c2nn(C(C)(C)C)c3ncnc(N)c23)cc1 [compound 24]

["> 50 µM", "> 50 µM", "10 to 50 µM"]

List reported minimal effective concentration for each of these molecules:
1. CC(C)(C)n1nc(Cc2ccc(F)cc2)c2c(N)ncnc21 [compound 51]
2. CC(C)(C)n1nc(C(O)c2ccccc2)c2c(N)ncnc21 (centres unmarked) [compound 82]
3. COc1cccc(Cc2nn(C(C)(C)C)c3ncnc(N)c23)c1 [compound 56]

> 50 µM
> 50 µM
10 to 50 µM
